// data source = paper PMC12282428

- ASSAYED TARGET: PEDV RdRp (Nsp12) (Porcine epidemic diarrhea virus, UniProt K4NS01)
- Sequence (K4NS01 4101-5027): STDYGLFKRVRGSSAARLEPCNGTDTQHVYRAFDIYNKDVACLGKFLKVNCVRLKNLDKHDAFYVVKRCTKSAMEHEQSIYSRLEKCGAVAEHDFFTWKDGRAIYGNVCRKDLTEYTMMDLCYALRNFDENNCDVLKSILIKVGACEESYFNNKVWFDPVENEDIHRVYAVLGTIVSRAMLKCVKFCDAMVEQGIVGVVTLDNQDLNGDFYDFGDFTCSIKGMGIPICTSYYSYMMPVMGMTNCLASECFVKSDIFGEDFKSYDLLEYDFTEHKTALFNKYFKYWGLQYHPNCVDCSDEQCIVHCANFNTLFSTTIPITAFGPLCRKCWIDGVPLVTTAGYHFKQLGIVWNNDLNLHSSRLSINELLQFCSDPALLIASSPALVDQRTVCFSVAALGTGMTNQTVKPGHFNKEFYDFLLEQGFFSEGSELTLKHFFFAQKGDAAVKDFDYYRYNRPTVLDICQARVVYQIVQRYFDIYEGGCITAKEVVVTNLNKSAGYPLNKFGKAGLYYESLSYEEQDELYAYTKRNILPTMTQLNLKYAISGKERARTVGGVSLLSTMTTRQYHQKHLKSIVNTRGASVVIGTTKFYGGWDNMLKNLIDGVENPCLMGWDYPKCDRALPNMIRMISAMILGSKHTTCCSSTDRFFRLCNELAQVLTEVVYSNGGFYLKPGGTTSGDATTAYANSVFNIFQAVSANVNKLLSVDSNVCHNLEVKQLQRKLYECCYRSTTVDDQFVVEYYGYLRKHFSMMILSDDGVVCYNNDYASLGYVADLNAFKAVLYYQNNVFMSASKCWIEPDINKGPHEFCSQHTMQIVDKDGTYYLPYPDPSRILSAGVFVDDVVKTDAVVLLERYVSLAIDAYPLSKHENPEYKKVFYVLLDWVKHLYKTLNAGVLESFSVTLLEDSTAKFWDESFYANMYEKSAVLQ
- PROTOCOL NOTES: CoV-RdRp-Gluc luciferase reporter assay in transfected HEK-293T cells
PROPERTY MEASURED: pIC50
Give bare numbers, as −log10 of the molar value.

*Q* Query: pIC50; subject: CC(C)/N=c1\cc2n(-c3ccc(Cl)cc3)c3ccccc3nc-2cc1Nc1ccc(Cl)cc1
*A* 6.87
